# EXPERIMENT DESCRIPTION: The drug is tested on WLS-350 corresponding to human gut metagenome with ENA study accession number: PRJEB37062 and ENA sample accession number: ERS12561789 for biotransformation under anaerobic condition. The drug concentrations were measured over 9 timepoints collected between 0 and 24 hours of incubation by liquid-chromatography-coupled mass spectrometry (LC–MS); also: call rule not given here
# ASSAY CONDITIONS: 2 µM
RECORDED ENDPOINT: Bacterial Biotransformation

{"MOLECULE": "COc1ccccc1OCC(O)CN1CCN(CC(=O)Nc2c(C)cccc2C)CC1 (stereo not given)", "OBSERVED": "Compound NOT metabolized"}
{"MOLECULE": "CN/C(=N/CCSCc1nc[nH]c1C)NC#N", "OBSERVED": "Compound NOT metabolized"}
{"MOLECULE": "Nc1nc2ccc(OC(F)(F)F)cc2s1", "OBSERVED": "Compound NOT metabolized"}
{"MOLECULE": "CCCc1nc(C(C)(C)O)c(C(=O)OCc2oc(=O)oc2C)n1Cc1ccc(-c2ccccc2-c2nnn[nH]2)cc1", "OBSERVED": "Compound NOT metabolized"}
{"MOLECULE": "CN1CCN(CC/C=C2/c3ccccc3Sc3ccc(S(=O)(=O)N(C)C)cc32)CC1", "OBSERVED": "Compound metabolized"}

Request: Please report the measured Bacterial Biotransformation for CC(O)(CS(=O)(=O)c1ccc(F)cc1)C(=O)Nc1ccc(C#N)c(C(F)(F)F)c1 (stereo not given) [BICALUTAMIDE]
Response: Compound NOT metabolized

Request: Please report the measured Bacterial Biotransformation for CC(Oc1c(Cl)cccc1Cl)C1=NCCN1 (stereo not given)
Response: Compound NOT metabolized

====

# ASSAY CONDITIONS: human gut metagenome, 24 h, 2 µM
RECORDED ENDPOINT: Bacterial Biotransformation

In the examples that follow, each entry is paired with its recorded Bacterial Biotransformation.
{"COMPOUND": "OC(CCN1CCCCC1)(c1ccccc1)C1CCCCC1 (centres undefined)", "OBSERVED": "Compound metabolized"}
{"COMPOUND": "COc1cc2nc(N(C)CCCNC(=O)C3CCCO3)nc(N)c2cc1OC (centres undefined)", "OBSERVED": "Compound metabolized"}
{"COMPOUND": "CCN(CC)CCNC(C(=O)OCCC(C)C)c1ccccc1.Cl.Cl (centres undefined)", "OBSERVED": "Compound NOT metabolized"}
{"COMPOUND": "OCCOCCN1CCN(C2=Nc3ccccc3Sc3ccccc32)CC1", "OBSERVED": "Compound metabolized"}
{"COMPOUND": "CNS(=O)(=O)Cc1ccc2[nH]cc(CCN(C)C)c2c1.O=C(O)CCC(=O)O [SUMATRIPTAN SUCCINATE]", "OBSERVED": "Compound metabolized"}

Request: Please report the measured Bacterial Biotransformation for C[C@@H](CO)NC(=O)[C@@H]1C=C2c3cccc4[nH]cc(c34)C[C@H]2N(C)C1.O=C(O)/C=C\C(=O)O [ERGONOVINE MALEATE]
Response: Compound metabolized

====

# EXPERIMENT DESCRIPTION: The drug is tested on Z-021 corresponding to metagenome with ENA study accession number: PRJEB37062 and ENA sample accession number: ERS12561820 for biotransformation under anaerobic condition. The drug concentrations were measured over 9 timepoints collected between 0 and 24 hours of incubation by liquid-chromatography-coupled mass spectrometry (LC–MS)
# ASSAY CONDITIONS: 2 µM
RECORDED ENDPOINT: Bacterial Biotransformation

In the examples that follow, each entry is paired with its recorded Bacterial Biotransformation.
{"MOLECULE": "CC(C(=O)O)c1ccc2c(c1)Cc1cccnc1O2 (centres undefined) [PRANOPROFEN]", "OBSERVED": "Compound metabolized"}
{"MOLECULE": "CC(C)c1c(C(=O)Nc2ccccc2)c(-c2ccccc2)c(-c2ccc(F)cc2)n1CC[C@@H](O)C[C@@H](O)CC(=O)O [ATORVASTATIN]", "OBSERVED": "Compound NOT metabolized"}
{"MOLECULE": "Clc1ccc(Cn2c(CN3CCCC3)nc3ccccc32)cc1 [CLEMIZOLE]", "OBSERVED": "Compound metabolized"}
{"MOLECULE": "O=C1NCC2(CCN(CCc3ccccc3)CC2)O1 [FENSPIRIDE]", "OBSERVED": "Compound NOT metabolized"}
{"MOLECULE": "Cc1ccccc1N1C(=O)c2cc(S(N)(=O)=O)c(Cl)cc2NC1C (centres undefined) [METOLAZONE]", "OBSERVED": "Compound NOT metabolized"}

Request: Please report the measured Bacterial Biotransformation for CCN(CC)C(C)CN1c2ccccc2Sc2ccccc21 (centres undefined) [ETHOPROPAZINE]
Response: Compound metabolized

Request: Please report the measured Bacterial Biotransformation for OC(CCN1CCCCC1)(c1ccccc1)C1CCCCC1 (centres undefined) [TRIHEXYPHENIDYL]
Response: Compound metabolized

Request: Please report the measured Bacterial Biotransformation for CC(O)(CS(=O)(=O)c1ccc(F)cc1)C(=O)Nc1ccc(C#N)c(C(F)(F)F)c1 (centres undefined) [BICALUTAMIDE]
Response: Compound NOT metabolized

Request: Please report the measured Bacterial Biotransformation for CCN(CC)CCOCCOC(=O)C1(c2ccccc2)CCCC1.O=C(O)CC(O)(CC(=O)O)C(=O)O [CARBETAPENTANE CITRATE]
Response: Compound metabolized
